Where do the numbers come from? From PubChem BioAssay (NCI).

System: 786-0 renal
TEST: NCI-60 one-dose screen, 48 h
MEASUREMENT SETUP: 10 µM unless noted
Method: Cells are grown in 96 well plates and exposed to the test compound for 48 hours. Compounds are tested at a single concentration, which is 10^-5 M for most compounds. The reported endpoint is percent growth (GI% or GIPRCNT), where numbers from 0 - 100% represent growth inhibition, and numbers from -100% - 0 represent cell death. For example, a value of 40 represents 60% growth inhibition. A value of 0 means no net growth occurred over the course of the experiment. […]
About 83,000 compounds went through this panel and 20% of them were active in at least one assay; those are over-represented in the sample as a whole. Active and inactive are the calls of the source. How the source made its calls: active means growth percent below 10; inactive means the rest.
Labels: active, inactive

MOLECULE	LABEL VALUE
C=C1CCC2C3(C)COC(c4ccccc4)OC3CCC2(C)C1C/C=C1/C(=O)OCC1O (stereo not drawn)	inactive
Cc1ccc(OCCn2ccc(=O)n(CCOc3ccc(Cl)cc3C(=O)c3cc(C)cc(C)c3)c2=O)cc1	inactive
CC(=O)Nc1nc(C)c(C(=O)N/N=C/c2cccs2)s1	inactive
O=C(Nc1ccc(-n2cc(-c3ccncc3)c(-c3ccc(Cl)c(O)c3)n2)cc1)c1ccc(Cl)c(Cl)c1	active
Cc1ccc(S(=O)(=O)NC(CCC(=O)Nc2ccccc2)C(=O)Nc2ccccc2)cc1 (stereo not drawn)	active
CC1(c2ccc(Br)cc2)NC(=O)NC1=O (stereo not drawn)	inactive
CCCCCCCCCCCCCCCCCC1=NCCN1CCNC(C)=O	inactive
COc1cc2ncnc(-n3ncc4cc(NC(=O)Nc5ccc(Cl)c(Cl)c5)ccc43)c2cc1OC	active
O=C(O)COc1ccc([N+](=O)[O-])cc1Cl	inactive
COC(c1ccccc1)C(Br)C(=O)c1ccccc1 (stereo not drawn)	inactive
O=C(Cc1ccccc1[N+](=O)[O-])c1ccc2c(c1)OCO2	inactive
COc1cc2oc(-c3ccc(NC(=O)c4ccccc4)cc3)cc(=O)c2c(OC)c1OC	inactive
O=C(/C=C1\C(=O)N(Cc2ccc([N+](=O)[O-])cc2)c2ccccc21)c1ccc(OCCN2CCCCC2)cc1	active
CCCCCCCCCCN1CC2CCCCC2C1 (stereo not drawn)	inactive
Cc1ccc(NCc2cn(-c3ccc(C(=O)O)cc3)nc2-c2ccc(C(=O)O)cc2)cc1	inactive
CN1NC(c2ccccc2)NN(C)C1=O	inactive
COc1cccc2c1nc1cccc(OC)c1[n+]2[O-]	inactive
CCCCCN1CCN(C(CC(=O)c2ccccc2)C(=O)c2ccccc2)CC1 (stereo not drawn)	inactive
Cc1ccc(S(=O)(=O)N/N=C2\CC3CCC2C3)cc1 (stereo not drawn)	inactive
Clc1ccc(N/N=C(\c2ccccc2)c2ccccn2)nc1	inactive
O=C(Nc1ccc(Cl)cn1)C1(c2ccccc2)CCCCC1	inactive
CCCCCc1ccnc(CC(=O)c2ccc(OC)cc2)c1	inactive
Oc1ccccc1\C=N/N=C/C=C/c1ccccc1	inactive

---

Tested on: HS 578T breast
TEST: NCI-60 one-dose screen, 48 h
MEASUREMENT SETUP: 10 µM unless noted
Compounds without any hit were thinned out: in the full panel of roughly 83,000, 20% have a hit. Activity calls are given as the source filed them. Rule for the calls: active = growth percent below 10; inactive = the rest.
Labels: label 1 = active, label 0 = inactive

COMPOUND	LABEL VALUE
COc1ccc(-c2nc(SCC(C)C)nc(Nc3ccc([N+](=O)[O-])cc3)c2C#N)cc1	label 0
COc1ccc(/C=C/C(=O)/C=C/c2cc3ccccc3[nH]c2=O)cc1	label 0
O=C1Nc2c(c(=O)n(-c3ccccc3)c3ccccc23)C(c2ccc(Cl)cc2)N1 (centres undefined)	label 0
CC1=C(C)C(=O)C(C(C)C2=C(C)C(=O)C(C)=C(C)C2=O)=C(C)C1=O	label 0
COc1ccc(CN2C(=O)/C(=C\C(=O)c3ccc(OCCN4CCCCC4)cc3)c3ccccc32)cc1	label 0
COC(c1ccccc1)C(Br)C(=O)c1ccccc1 (centres undefined)	label 0
CC/C(=N\Nc1nc2ccccc2n1C)c1ccccn1	label 0
COc1ccc(OC)c(Cn2cc3c(c2)-c2oncc2CC3)c1	label 0
CCCCCCCCCCCCCCCCC(=O)O.CCCCCCCCCCCCCCCCCC(=O)O.CCCCCCCCCCCCCCCCCC(=O)O.CCCCCCCCCCCCCCCCCC(=O)O.CCCCCCCCCCCCCCCCCC(=O)O.CO[CH-]OC12COC1CC(O)C1(C)C(O)C(OC(C)O)C3=C(C)C(OC(=O)C(O)C([NH-])c4ccccc4)CC(O)(C(OC(=O)c4ccccc4)C21)C3(C)C.[Cu+].[Zn].[Zn].[Zn].[Zn].[Zn] (centres undefined)	label 0
Cc1cc2cn3c4ccc(O)cc4[nH]c(=O)c3c2cc1C	label 1
COC(=O)Nc1nc2ccc(C(=O)c3ccccc3N(C)C3COC3)cc2[nH]1	label 0
O=C(Nc1ccc(-n2cc(-c3ccncc3)c(-c3ccc(Cl)c(O)c3)n2)cc1)c1ccc(Cl)c(Cl)c1	label 1
COC(=O)/C=C1/CCCCC1(C)C(=O)OC (centres undefined)	label 0
O=C(Nc1ccc(-n2cc(-c3ccncc3)c(-c3ccc(Cl)c(O)c3)n2)cc1)c1ccc(Cl)c(C(F)(F)F)c1	label 1
COc1ccc(/C=C2\CCCC3=C2N=C2SC=NN2C3c2ccc(OC)c(OC)c2)cc1OC (centres undefined)	label 0
CCCCCCCCCCCCc1ccc([N+](CC)(CC)CC)cc1	label 0
COc1cc(-c2nn(-c3ccc(NC(=O)Nc4ccc(Cl)c(Cl)c4)cc3)cc2-c2ccncc2)ccc1Cl	label 1
COc1ccc2cnc(N)c(C#Cc3cc(C(=O)Nc4ccc(CN5CCN(C)CC5)c(C(F)(F)F)c4)cnc3C)c2c1	label 1
COC(=O)c1ccc2[nH]c(O)c(C(=Nc3ccc(N(C)C(=O)CN4CCN(C)CC4)cc3)c3ccc([N+](=O)[O-])cc3)c2c1	label 0
CCOC(=O)NNc1[nH]c(-c2ccc(OC)cc2)cc1C#N	label 0
COc1ccc(-c2nc(SCC(C)C)nc(Nc3ccc(C)cc3)c2C#N)cc1	label 0
C/C=C(/C)C(=O)OC1C=C(CO)C(=O)C(OC(=O)/C(C)=C\C)C1C(C)C (centres undefined)	label 0
CCC(C)C1NC(=O)C(CC(C)C)NC(=O)C(C)NC(=O)C(C(C)C)NC(=O)C(CCCCN)NC(=O)C(CC(C)C)NC(=O)C(C(C)C)NC(=O)[C@H](C)NC(=O)C(C(C)CC)NC(=O)C(CCCN=C(N)N)NC(=O)C(CCCCN)NC(=O)C(CCCN=C(N)N)NC(=O)C(CCCCN)NC(=O)C([C@H](C)CC)NC(=O)C(CCCCN)NC1=O (some centres undefined)	label 0
CCC(C)[C@H](NC(=O)Nc1cc(C(F)(F)F)cc(C(F)(F)F)c1)C(=O)N[C@@H](Cc1cn(C)cn1)C(=O)OC (some centres undefined)	label 1
Cc1nnc(-c2cc3c(ccc4ccccc43)oc2=O)c2cn(-c3ccc(Cl)cc3)nc12	label 0
CSc1nc(N)n2nccc2n1	label 0
O=C1/C(=C\c2cn(-c3nc(N4CCOCC4)nc(N4CCOCC4)n3)c3ccccc23)c2ccccc2N1c1c(Cl)cccc1Cl	label 0
CC(C)(C)C(=O)CCCCCCCC/C=C/CCCC(O)c1ccco1 (centres undefined)	label 0
COC(=O)c1ccc2[nH]c(O)c(C(=Nc3ccc(N(C)C(=O)CN4CCN(C)CC4)cc3)c3ccc(OC)cc3)c2c1	label 0
CC(C)OC(=O)[C@H](C)N[P@@](=O)(OC[C@@]1(C)O[C@@H](n2cc(F)c(N)nc2=O)C[C@@H]1O[P@](=O)(N[C@@H](C)C(=O)OC(C)C)Oc1ccccc1)Oc1ccccc1	label 0
CC(=O)Nc1nc(C)c(C(=O)N/N=C/c2cccs2)s1	label 0
Cc1nc(NC(=O)NC2CCCCC2)sc1C(=O)NN	label 0
CC(=O)Nc1ccc(C(=O)/C=C/c2ccc(N(C)C)cc2)cc1	label 0
CCCC(CCC)Oc1ccc(CCCC2=C(O)c3ccccc3C(=O)C2=O)cc1	label 0

---

System: IGROV1 ovarian
TEST: NCI-60 one-dose screen, 48 h
MEASUREMENT SETUP: 10 µM unless noted
About 83,000 compounds went through this panel and 20% of them were active in at least one assay; those are over-represented in the sample as a whole. The source made the active and inactive calls. How the source made its calls: active means growth percent below 10; inactive means the rest.
Possible outcomes: Yes (active), No (inactive)

1. CCCCN(CCCC)c1ccc(C(=O)O)cc1 No
2. COc1ccccc1CNCCCN1C(=O)c2ccc3c4c(ccc(c24)C1=O)C(=O)N(CCCNCc1ccccc1OC)C3=O Yes
3. CC1=C(C)C(=O)C(C(C)C2=C(C)C(=O)C(C)=C(C)C2=O)=C(C)C1=O Yes
4. CCC(C)(CC)c1ccc(O)c(C)c1 No
5. CCOC(=O)c1cc(C(=O)c2ccc(Br)cc2)n2cc(C)cc(C)c12 No
6. CCCCn1c(Cc2ccc(OC)cc2)nc2cc(OC)c(OC)cc2c1=O No

---

Tested on: EKVX NSCLC
TEST: NCI-60 one-dose screen, 48 h
MEASUREMENT SETUP: 10 µM
This is part of a sample that, as a whole, favours compounds with a hit. Of some 83,000 tested, about 20% had one in any assay. The source made the active and inactive calls. How the source made its calls: active means growth percent below 10; inactive means the rest.
Classes used: yes = active, no = inactive

MOLECULE	LABEL VALUE
N#Cc1c2ncccc2c2nnc3cc(Cl)c(Cl)cc3n12	no
COc1ccc(Cn2cc3c(c2)-c2oncc2CC3)cc1OC	no
C/C(=N\Nc1ccc(Cl)cn1)c1ccc2ccccc2n1	no
CCCCCC(=C/c1ccccc1)/C=N/N=C(N)N	no
O=c1[nH]c2cc(O)ccc2n2cc3c(F)cccc3c12	no
C=CCN(C)C	no
Nc1cc(N)c2nc(-c3ccccc3)c(NCCc3ccc(Cl)c(Cl)c3)nc2c1	yes
CC1=C(C)C[C@]2(C(=O)O[C@H]3CCCC[C@@H]32)[S@](=O)C1	no
COC(=O)C1CC(=O)N(C(=O)Nc2ccc(Cl)cc2Cl)C1 (configuration not stated)	no
COc1ccc(C(=O)CN2C(=O)NC(c3ccccc3)(c3ccccc3)C2=O)cc1	no
Cc1nc(NC(=O)NC2CCCCC2)sc1C(=O)NN	no
Cc1ccc(OCCn2ccc(=O)n(CCOc3ccc(Cl)cc3C(=O)c3cc(C)cc(C)c3)c2=O)cc1	no
